Molecular target: T1, cynomolgus monkey PVRIG on 293T-cynoPVRIG cells (cynomolgus monkey, UniProt A0A2K5WVV8 41-322)
T1 construct: whole, on cells; also called full-length monkey PVRIG
T1 sequence: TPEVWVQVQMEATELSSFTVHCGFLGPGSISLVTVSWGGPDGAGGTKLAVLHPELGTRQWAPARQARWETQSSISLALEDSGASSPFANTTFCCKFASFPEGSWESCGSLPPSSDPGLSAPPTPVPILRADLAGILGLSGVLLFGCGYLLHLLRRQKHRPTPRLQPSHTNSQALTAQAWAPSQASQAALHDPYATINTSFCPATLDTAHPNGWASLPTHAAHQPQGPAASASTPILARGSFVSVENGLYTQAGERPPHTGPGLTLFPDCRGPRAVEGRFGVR
Test: flow cytometry on 293T-cynoPVRIG cells
measured-property: EC50 (pM)
Answers are plain numbers, in pM.

Take a look at these entries with their results.
1. Hab1B10E8.6 (antibody, V domains shown, Humanized antibody; also called Hab1B10E8-VH.1b + Hab1B10E8-VL.1b) VH: QVQLVQSGAEVKKPGASVKVSCKASGYSFPSYWMHWVRQAPGQGLEWIGEINPSNGLTNYNEQFRNRVTMTVDTSTSTVYMELSSLRSEDTAVYYCARHHGSTYYALDSWGQGTLVTVSS VL: DIVMTQSPDSLAVSLGERATINCKSSQSLLNSINQKNFLAWYQQKPGQPPKLLVYFASTRESGVPDRFSGSGSGTDFTLTISSLQAEDVAVYFCQQHYSTPPTFGGGTKLEIK; 124
2. Hab21F10C10.12 (antibody, V domains shown, Humanized antibody; also called Hab21F10C10-VH.1d + Hab21F10C10-VL.1c) VH: QVQLVQSGAEVKKPGASVKVSCKASGYTFINNFIEWVRQAPGQGLEWMGVINPGSGDANYAQKFQGRVTMTRDTSISTAYMELSRLRSDDTAVYYCASHWLAYWGQGTTVTVSS VL: EIVMTQSPPTLSLSPGERVTLSCRSSQSLLSSGNQKNYLSWYQQKPGQAPRLLIYGASTRETGIPARFSGSGSGTDFTLTISSLQPEDFAVYYCQNGHFYPYTFGGGTKLEIK; 267
3. SRF813-IgG1 (antibody, V domains shown) VH: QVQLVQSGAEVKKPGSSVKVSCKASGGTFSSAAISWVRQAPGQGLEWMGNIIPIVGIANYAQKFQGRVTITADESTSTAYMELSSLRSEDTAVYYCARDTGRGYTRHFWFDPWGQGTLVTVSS VL: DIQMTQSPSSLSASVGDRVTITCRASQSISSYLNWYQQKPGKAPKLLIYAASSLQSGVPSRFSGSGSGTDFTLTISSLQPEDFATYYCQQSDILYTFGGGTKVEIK; 150

// moving on: another record for EC50
Query: EC50; subject: Hab43F7C9.12 (antibody, V domains shown, Humanized antibody; also called Hab43F7C9-VH.1d + Hab43F7C9-VL.1c; 43H7C9.12) VH: QVQLQESGPGLVKPSETLSLTCTVSGYSISSDYAWNWIRQPPGKGLEWIGYIRYNGNTNYNPSLKSRVTISVDTSKNQFSLKLSSVTAADTAVYYCAIIYYDYDGFVYWGQGTTVTVSS VL: DIQMTQSPSSLSASVGDRVTITCRASQNVYENLHWYQQKPGKAPKLLIKFASDSISGVPSRFSGSGSGTDFTLTISSLQPEDFATYYCLQLYSTPYTFGGGTKLEIK
108
